- Test system: SK-MEL-2 melanoma
- assay notes: NCI tumour cell line growth inhibition, 48 h
parameter measured: GI50

molecule	readout value
CCOC(=O)c1c(C)nc2c(c1N)CC(=O)N2CCc1ccccc1	530 nM
Cn1c2ccccc2c2c3[nH][nH]c(=O)c3c3c4ccccc4[nH]c3c21	1770 nM
C[C@]12CC[C@H]3[C@@H](C[C@@H]4SC(Nc5ccccc5)=N[C@@]45CC(O)CC[C@]35C)[C@@H]1CCC2O (stereo partly specified)	2510 nM
C=C(CC(=O)O)C(=O)O (tested in a mixture with another compound)	> 50 µg/mL
CC(=O)C1=C(C)N(C)C2(O)C=CC(=O)C3=C(O)c4ccccc4C(=O)C312 (stereo unspecified)	30600 nM
CN1CCN(Cc2ccc(NC(=O)c3cncc(C#Cc4cncc5nccnc45)c3)cc2C(F)(F)F)CC1	915 nM
Cc1[nH]nc2c1N=C(c1ccccc1F)c1cc(C(N)=O)ccc1N2	2450 nM
O=C1Nc2ccccc2/C1=C\c1nc(C2CCN(S(=O)(=O)c3ccc(F)cc3)CC2)n2ccccc12	2080 nM
CCC(=O)Nc1ccccc1C#C/C=C\C#Cc1ccccc1C(F)(F)F	631 nM
COc1cc2ncnc(Nc3ccc4c(cnn4Cc4ccccc4)c3)c2cc1OC	> 25000 nM
C[n+]1c(-c2ccc(/C=N/NC(=O)c3ccc(C(=O)N/N=C/c4ccc(-c5cn6ccccc6[n+]5C)cc4)cc3)cc2)cn2ccccc21	270000 nM

---

- Test system: 786-0 renal
- assay notes: NCI tumour cell line growth inhibition, 48 h; in the data active = GI50 below about 0.43 µM; inactive = the rest
Outcome codes: active, inactive

molecule	answer label
O=C1Nc2ccccc2/C1=C\c1nc(C2CCN(S(=O)(=O)c3ccc(F)cc3)CC2)n2ccccc12	inactive
Cc1[nH]c(-c2nc3ccccc3[nH]2)c(C)c1C(=O)NC(C)C1CCCCC1 (centres undefined)	inactive
COc1cc(N2CCN(C(C)C)CC2)ccc1Nc1nc(Nc2cccc(F)c2C(=O)O)c2cc[nH]c2n1	inactive
C[n+]1c(-c2ccc(/C=N/NC(=O)c3ccc(C(=O)N/N=C/c4ccc(-c5cn6ccccc6[n+]5C)cc4)cc3)cc2)cn2ccccc21	inactive
CC(=O)C1=C(C)N(C)C2(O)C=CC(=O)C3=C(O)c4ccccc4C(=O)C312 (centres undefined)	inactive
COc1cc(C2C3=C(COC3=O)Nc3c2ccc2c3CCCC2)cc2c1OCO2 (centres undefined)	active
CCCCC(=O)N/N=C/c1c(O)ccc2ccccc12	inactive
N#Cc1c(N)nc(N)nc1N[C@H](c1nc2c(F)ccc(Cl)c2c(=O)n1-c1cccnc1)C1CC1	active
Cn1c2ccccc2c2c3[nH][nH]c(=O)c3c3c4ccccc4[nH]c3c21	inactive

---

TGI for assorted compounds
- System: MALME-3M melanoma
- assay notes: NCI tumour cell line growth inhibition, 48 h
Where a SMILES comes first, the peptide text is derived from it.

compound	TGI
CC1=C(Cl)C=CP(=O)(OC(C)C)C1 (stereo not drawn)	> 100 µM
CC(C)CC(NC(=O)C(Cc1ccccc1)NC(=O)C(Cc1c[nH]c2ccccc12)NC(=O)CNC(=O)C(N)Cc1ccc(O)cc1)C(=O)O (stereo not drawn) (H-YGWFL-OH; configuration not given here)	72.3 µM
O=C(N/N=C/c1ccccc1O)c1ccccc1Nc1ccccc1C(=O)N/N=C/c1ccccc1O	6.09 µM
CCOC(=O)CCC(NC(=O)OCc1ccccc1)C(=O)NC(CCC(=O)OCC)C(=O)NNC(=O)OC(C)(C)C (stereo not drawn)	> 100 µM
CCc1cc2ncc(CN3CCN(c4ccc(C(=O)NC)nc4)CC3)cc2[nH]c1=O	> 100 µM
O=C1NC(N2CCCCC2)=N/C1=C\c1ccccc1O	> 100 µM
O=[n+]1c2ccccc2n([O-])c2cc(Cl)ccc21	20.8 µM
CCN(CC)C(=O)N1CCN(C=S)CC1	> 100 µM
Cc1[nH]nc2c1N=C(c1ccccc1F)c1cc(C(N)=O)ccc1N2	> 25 µM
O=C1NC(=O)/C(=C/c2ccc(S(=O)(=O)N/N=C\C(O)C(O)C(O)C(O)CO)cc2)N1 (stereo not drawn)	> 100 µM
COc1cc(S(=O)(=O)Nc2ccc(-c3csc(N4C(=O)C(Cl)C4c4ccccc4)n3)cc2)ccc1Cl (stereo not drawn)	49 µM
Cc1ccc(C2=C(c3ccc(C)cc3)C3(c4ccc(C)cc4)C4C(=O)c5ccccc5C(=O)C4C2(c2ccc(C)cc2)S3=O)cc1 (stereo not drawn)	> 100 µM
CCOC(=O)C1=C(C)N(NC(N)=O)C(C)(O)C12CCOC2=O (stereo not drawn)	> 100 µM
CCN(CC)CCCNc1nc(=O)[nH]c(C)c1C(=O)Nc1ccc2c(c1)c1ccccc1n2CC	> 100 µM
CCN(CC)CCN(Cc1ccc(F)cc1)c1ccc(CO)c(Cl)c1	37.3 µM
Nc1c(N2CCOCC2)c(=O)nc2[nH]/c(=C\c3ccccc3)c(=O)n12	> 100 µM
COc1c(-c2ccc(O)c(O)c2)oc2c(O)c(O)cc(O)c2c1=O	> 100 µM
Cc1cc(C(=O)NC(CCC(=O)O)C(=O)O)sc1CCC1CNc2nc(N)[nH]c(=O)c2C1 (stereo not drawn)	> 100 µM
